measured.target: human 17β-HSD2 (Homo sapiens, UniProt P37059)
Construct: expressed in transfected cells; host or cells: HEK-293 (ATCC), used as cell lysate
Sequence (P37059 whole entry): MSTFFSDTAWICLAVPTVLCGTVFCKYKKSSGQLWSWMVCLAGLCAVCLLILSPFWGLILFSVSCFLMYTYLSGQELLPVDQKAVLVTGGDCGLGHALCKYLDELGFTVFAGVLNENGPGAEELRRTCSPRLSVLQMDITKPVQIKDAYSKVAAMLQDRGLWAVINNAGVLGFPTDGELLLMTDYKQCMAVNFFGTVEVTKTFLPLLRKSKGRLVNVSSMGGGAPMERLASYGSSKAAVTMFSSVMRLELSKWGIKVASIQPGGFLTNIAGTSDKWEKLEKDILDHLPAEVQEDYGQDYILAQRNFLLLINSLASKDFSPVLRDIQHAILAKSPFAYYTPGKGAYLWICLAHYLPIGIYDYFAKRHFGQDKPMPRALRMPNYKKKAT
procedure.text: 17β-HSD2 activity assay using lysates of HEK-293 cells expressing the recombinant human enzyme;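 note: conversion of tritium-labelled estradiol (200 nM, with 500 µM NAD+, 10 min) quantified after TLC separation by scintillation counting, at least three independent measurements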
Format: biochemical
test.parameters: read-out: 17β-HSD2 remaining activity at 20 μM (% of control)
quantity: remaining activity at 20 µM (%)

>>> value("COc1cc(CNC(=O)CCCC/C=C/C(C)C)ccc1O")
53
>>> value("COc1cc([C@H]2OC[C@H]3[C@@H]2CO[C@@H]3c2ccc(O)c(OC)c2)ccc1O")
42
>>> value("O=C(O)Cc1ccc(O)c(Cl)c1 [S12, 2-(3-chloro-4-hydroxyphenyl)acetic acid]")
88
>>> value("C=CCc1ccc(O)c(OC)c1")
94
>>> value("CC1(C)CC[C@]2(C(=O)O)CC[C@]3(C)C(=CC[C@@H]4[C@@]5(C)CC[C@H](O)C(C)(C)[C@@H]5CC[C@]43C)[C@@H]2C1")
49
